- System: L1210
- assay.summary: Cytotoxicity against multidrug resistant (MDR) L1210 murine leukemia cells by MTT assay
- Assay type: functional, cell-based, Mus musculus
- experimental.conditions: Mus musculus, L1210
pIC50: −log10 of the molar value.
For each entry below, report its pIC50 value.

[in] Given the entry O=C(O)C1CSC(C2CN2)=N1 (stereo not drawn) , report its measured pIC50.
[out] < 3.30

[in] Given the entry NC(=O)N1CC1C1=NC(C(=O)O)CS1 (stereo not drawn) , report its measured pIC50.
[out] < 3.30

[in] Given the entry CNC(=O)N1CC1C1=NC(C(=O)O)CS1 (stereo not drawn) , report its measured pIC50.
[out] < 3.30

[in] Given the entry CC(=O)NC(CSCC1NC(=O)NC1=O)C(=O)O (stereo not drawn) , report its measured pIC50.
[out] 3.93

[in] Given the entry N#CC1CN1C(N)=O (stereo not drawn) , report its measured pIC50.
[out] < 3.30

[in] Given the entry CNC(=O)N1CC1C#N (stereo not drawn) , report its measured pIC50.
[out] 4.44

[in] Given the entry C[N+](C)(C)C(CSCC(C#N)NC(=O)Nc1ccccc1)C(=O)[O-] (stereo not drawn) , report its measured pIC50.
[out] < 3.30

[in] Given the entry N#CC1CN1 (stereo not drawn) , report its measured pIC50.
[out] < 3.30

These entries and their values trace back to ChEMBL document CHEMBL1146638.
